B1: library; a variant is named by its letters at N, in order (parent)
chain: GCUGUCACCGGAAUACCAGCAUCGUCUUGAUGCCCUUGGAAGUCCGGUCUGAUGAGUCCNNNNNGGACGAAACAGC

- Variants of: B1
- assayProtocol: normalized RNA/DNA level with ligand (relative to sTRSVctl = 100) (log10 (% of sTRSVctl)); higher = less ribozyme self-cleavage, higher mRNA level
- measurementConditions: ligand concentration (+) RNA-Seq: 5 mM, HEK293T, reporter: mCherry (pCS4076), ligand present: yes
measurementName: normalized RNA/DNA level with ligand (log10)
# answer = number (no unit)

GCUGUCACCGGAAUACCAGCAUCGUCUUGAUGCCCUUGGAAGUCCGGUCUGAUGAGUCCUCCACGGACGAAACAGC [UCCAC]    2.05
GCUGUCACCGGAAUACCAGCAUCGUCUUGAUGCCCUUGGAAGUCCGGUCUGAUGAGUCCUUAUCGGACGAAACAGC [UUAUC]    2.04
GCUGUCACCGGAAUACCAGCAUCGUCUUGAUGCCCUUGGAAGUCCGGUCUGAUGAGUCCAGUAGGGACGAAACAGC [AGUAG]    1.97

normalized RNA/DNA level with ligand (log10) measured on GCUGUCACCGGAAUACCAGCAUCGUCUUGAUGCCCUUGGAAGUCCGGUCUGAUGAGUCCAUCACGGACGAAACAGC [AUCAC] = 1.98

Short answer for GCUGUCACCGGAAUACCAGCAUCGUCUUGAUGCCCUUGGAAGUCCGGUCUGAUGAGUCCACUCUGGACGAAACAGC [ACUCU] : normalized RNA/DNA level with ligand (log10) was 2.01

GET /value?item= GCUGUCACCGGAAUACCAGCAUCGUCUUGAUGCCCUUGGAAGUCCGGUCUGAUGAGUCCUGAUUGGACGAAACAGC [UGAUU] &field=normalized RNA/DNA level with ligand (log10) returns 1.96

Quick note, normalized RNA/DNA level with ligand (log10) for GCUGUCACCGGAAUACCAGCAUCGUCUUGAUGCCCUUGGAAGUCCGGUCUGAUGAGUCCUACUCGGACGAAACAGC [UACUC] landed at 2.1

// field: normalized RNA/DNA level with ligand (log10); key: GCUGUCACCGGAAUACCAGCAUCGUCUUGAUGCCCUUGGAAGUCCGGUCUGAUGAGUCCUAUCGGGACGAAACAGC [UAUCG] ; value = 2.07

So, GCUGUCACCGGAAUACCAGCAUCGUCUUGAUGCCCUUGGAAGUCCGGUCUGAUGAGUCCCGCUUGGACGAAACAGC [CGCUU] ? Its normalized RNA/DNA level with ligand (log10) was 1.99

Per the records, this variant ( GCUGUCACCGGAAUACCAGCAUCGUCUUGAUGCCCUUGGAAGUCCGGUCUGAUGAGUCCCGGAUGGACGAAACAGC [CGGAU] ) has normalized RNA/DNA level with ligand (log10) equal to 2

normalized RNA/DNA level with ligand (log10) reading for GCUGUCACCGGAAUACCAGCAUCGUCUUGAUGCCCUUGGAAGUCCGGUCUGAUGAGUCCUCCAGGGACGAAACAGC [UCCAG] : 2.01

// normalized RNA/DNA level with ligand (log10) lookup, variant = GCUGUCACCGGAAUACCAGCAUCGUCUUGAUGCCCUUGGAAGUCCGGUCUGAUGAGUCCUUCGUGGACGAAACAGC [UUCGU] , result: 2.08

Memo: GCUGUCACCGGAAUACCAGCAUCGUCUUGAUGCCCUUGGAAGUCCGGUCUGAUGAGUCCGUAAAGGACGAAACAGC [GUAAA] , reported normalized RNA/DNA level with ligand (log10): 1.98

So for GCUGUCACCGGAAUACCAGCAUCGUCUUGAUGCCCUUGGAAGUCCGGUCUGAUGAGUCCCAAGAGGACGAAACAGC [CAAGA] , the logged normalized RNA/DNA level with ligand (log10) turned out to be 1.97

Lookup result for GCUGUCACCGGAAUACCAGCAUCGUCUUGAUGCCCUUGGAAGUCCGGUCUGAUGAGUCCGCAUGGGACGAAACAGC [GCAUG] ; measured normalized RNA/DNA level with ligand (log10): 1.94

The variant listed as GCUGUCACCGGAAUACCAGCAUCGUCUUGAUGCCCUUGGAAGUCCGGUCUGAUGAGUCCCGCAAGGACGAAACAGC [CGCAA] has a reported normalized RNA/DNA level with ligand (log10) of 1.89

Documented normalized RNA/DNA level with ligand (log10) of GCUGUCACCGGAAUACCAGCAUCGUCUUGAUGCCCUUGGAAGUCCGGUCUGAUGAGUCCACGUCGGACGAAACAGC [ACGUC] : 1.99

Entry GCUGUCACCGGAAUACCAGCAUCGUCUUGAUGCCCUUGGAAGUCCGGUCUGAUGAGUCCACGGUGGACGAAACAGC [ACGGU] ; normalized RNA/DNA level with ligand (log10) = 1.89
